Assay: Cytotoxicity against HEK293T cells assessed as reduction in colony formation after 48 hrs by crystal violet-staining based assay
Type: functional
Conditions: Homo sapiens, HEK-293T, read-out: LC50 (the source's name)
QUANTITY KIND: CC50 (nM)
Numbers only, in nM.

Identify the reported CC50 for the following entry. `COc1ccc(OC)c(/C=C2\N=C3C=CC=CN3C2=O)c1`
60

Identify the reported CC50 for the following entry. `COc1cc(/C=C2\N=C3C=CC=CN3C2=O)cc(OC)c1OC`
55

Identify the reported CC50 for the following entry. `O=C1/C(=C/c2ccc(Br)cc2)N=C2C=CC=CN12`
20

Identify the reported CC50 for the following entry. `COc1ccc(/C=C2\N=C3C=CC=CN3C2=O)cc1`
60

Identify the reported CC50 for the following entry. `O=C1/C(=C/c2ccc(Cl)cc2)N=C2C=CC(Cl)=CN12`
40

// for each compound in input: emit CC50
1. O=C1/C(=C/c2ccc(Cl)cc2)N=C2C=CC=CN12
2. COc1ccc(/C=C2\N=C3C=CC(Cl)=CN3C2=O)cc1
3. COc1cccc(/C=C2\N=C3C=CC=CN3C2=O)c1

40
40
75

Identify the reported CC50 for the following entry. `O=C1/C(=C/c2ccc(O)cc2)N=C2C=CC=CN12`
50

###

Assay: Cytotoxicity against African green monkey Vero cells assessed as reduction in colony formation after 48 hrs by crystal violet-staining based assay
Assay type: toxicity, cell-based
Conditions: chlorocebus sabaeus, Vero cells; read-out: LC50
Give CC50 at 48 h for every item shown.
Numbers only, in nM.

Recorded CC50 at 48 h, per entry:
Identify the reported CC50 at 48 h for the following entry. `O=C1/C(=C/c2ccc(O)cc2)N=C2C=CC=CN12`
1500

Identify the reported CC50 at 48 h for the following entry. `O=C1/C(=C/c2ccc(Cl)cc2)N=C2C=CC=CN12`
1500

Identify the reported CC50 at 48 h for the following entry. `COc1ccc(/C=C2\N=C3C=CC(Cl)=CN3C2=O)cc1`
1500

Identify the reported CC50 at 48 h for the following entry. `O=C1/C(=C/c2ccc(Cl)cc2)N=C2C=CC(Cl)=CN12`
1500

Identify the reported CC50 at 48 h for the following entry. `COc1ccc(OC)c(/C=C2\N=C3C=CC=CN3C2=O)c1`
1500

Identify the reported CC50 at 48 h for the following entry. `COc1cc(/C=C2\N=C3C=CC=CN3C2=O)cc(OC)c1OC`
1000

Identify the reported CC50 at 48 h for the following entry. `COc1ccc(/C=C2\N=C3C=CC=CN3C2=O)cc1`
1500

Identify the reported CC50 at 48 h for the following entry. `COc1cccc(/C=C2\N=C3C=CC=CN3C2=O)c1`
1500

***
Identify the reported CC50 at 48 h for the following entry. `O=C1/C(=C/c2ccc(Br)cc2)N=C2C=CC=CN12`
1500

###

Test system: MCF7
Test: Cytotoxicity against human MCF7 cells assessed as reduction in colony formation after 48 hrs by crystal violet-staining based assay
Format: functional, cell-based
Active and inactive are the calls of the source. The rule behind the calls is not given here.
QUANTITY KIND: Activity

Recorded Activity, per entry:
Identify the reported Activity for the following entry. `COc1ccc(/C=C2\N=C3C=CC(Cl)=CN3C2=O)cc1`
Active

Identify the reported Activity for the following entry. `COc1ccc(/C=C2\Oc3ccccc3C2=O)cc1`
Dose-dependent effect

Identify the reported Activity for the following entry. `O=C1/C(=C/c2ccc(Br)cc2)N=C2C=CC=CN12`
Dose-dependent effect

Identify the reported Activity for the following entry. `COc1ccc(/C=C2\N=C3C=CC=CN3C2=O)cc1`
Dose-dependent effect

Identify the reported Activity for the following entry. `COc1ccc(OC)c(/C=C2\N=C3C=CC=CN3C2=O)c1`
Active

// for each molecule in input: emit Activity
1. O=C1/C(=C/c2ccc(Cl)cc2)N=C2C=CC(Cl)=CN12
2. COc1cc(/C=C2\N=C3C=CC=CN3C2=O)cc(OC)c1OC
3. O=C1/C(=C/c2ccc(Cl)cc2)N=C2C=CC=CN12
4. COc1cccc(/C=C2\N=C3C=CC=CN3C2=O)c1
5. O=C1/C(=C/c2ccc(O)cc2)N=C2C=CC=CN12

["Active", "Active", "Active", "Active", "Active"]

Identify the reported Activity for the following entry. `O=C1/C(=C/c2ccc(Br)cc2)Oc2ccccc21`
Dose-dependent effect

Data origin, for the record: ChEMBL document CHEMBL3864174
